Just for reference, patent US20140235533A1 is where these values come from.

# System: Plutella xylostella
# Measurement description: Plutella xylostella (diamond back moth) artificial diet MTP test
# Format: in vivo
# Condition label: 144 h, 200 ppm (concentration in well 18 ppm), L2 larvae, larval mortality and growth regulation after 6 days
Give pest or weed control at 200 ppm for every item shown.

Request: Can you look up pest or weed control at 200 ppm on Plutella xylostella for CCSC(SCC)C(=O)NCc1ccc(C2=COC(c3cc(Cl)cc(Cl)c3)(C(F)(F)F)C2)cc1Cl (stereo not shown) [Compound A53] ?
Result: ≥ 80%

Request: Can you look up pest or weed control at 200 ppm on Plutella xylostella for O=C(NCc1ccc(C2=COC(c3cc(Cl)cc(Cl)c3)(C(F)(F)F)C2)cc1Cl)c1cc(Cl)ccc1Cl (stereo not shown) [Compound A28] ?
Result: ≥ 80%

Request: Can you look up pest or weed control at 200 ppm on Plutella xylostella for COc1ccc(C(=O)NCc2ccc(C3=COC(c4cc(Cl)cc(Cl)c4)(C(F)(F)F)C3)cc2Cl)cc1 (stereo not shown) [Compound A26] ?
Result: ≥ 80%

Request: Can you look up pest or weed control at 200 ppm on Plutella xylostella for O=C(/C=C/c1ccco1)NCc1ccc(C2=COC(c3cc(Cl)cc(Cl)c3)(C(F)(F)F)C2)cc1Cl (stereo not shown) [Compound A10] ?
Result: ≥ 80%

Request: Can you look up pest or weed control at 200 ppm on Plutella xylostella for O=C(CCc1ccccc1)NCc1ccc(C2=COC(c3cc(Cl)cc(Cl)c3)(C(F)(F)F)C2)cc1Cl (stereo not shown) [Compound A09] ?
Result: ≥ 80%

Request: Can you look up pest or weed control at 200 ppm on Plutella xylostella for CCC(Cl)C(=O)NCc1ccc(C2=COC(c3cc(Cl)cc(Cl)c3)(C(F)(F)F)C2)cc1Cl (stereo not shown) [Compound A47] ?
Result: ≥ 80%

Request: Can you look up pest or weed control at 200 ppm on Plutella xylostella for O=C(COc1ccccc1)NCc1ccc(C2=COC(c3cc(Cl)cc(Cl)c3)(C(F)(F)F)C2)cc1Cl (stereo not shown) [Compound A19] ?
Result: ≥ 80%
